Reference source: patent US8455510B2

# PROTOCOL SUMMARY: in vivo
# Type: in vivo
# CONDITION: nude, mouse, in vivo, CCI-779 (prototype) concentration, Liver
QUANTITY: concentration at 5 h (ng/g)
Response body: numeric value in ng/g, unit text excluded.

[in] Query: concentration at 5 h; subject: CO[C@H]1C[C@@H]2CC[C@@H](C)[C@@](O)(O2)C(=O)C(=O)N2CCCC[C@H]2C(=O)O[C@H]([C@H](C)C[C@@H]2CC[C@@H](OC(=O)C(C)(CO)CO)[C@H](OC)C2)CC(=O)[C@H](C)/C=C(\C)[C@@H](O)[C@@H](OC)C(=O)[C@H](C)C[C@H](C)/C=C/C=C/C=C/1C [CCI-779]
[out] 45.5

====

# PROTOCOL SUMMARY: in vivo
# Type: in vivo
# CONDITION: nude, mouse, in vivo, CCI-779 (prototype) concentration, Liver, Mean Value
QUANTITY: concentration at 5 h (ng/g)
Response body: numeric value in ng/g, unit text excluded.

[in] Query: concentration at 5 h; subject: CO[C@H]1C[C@@H]2CC[C@@H](C)[C@@](O)(O2)C(=O)C(=O)N2CCCC[C@H]2C(=O)O[C@H]([C@H](C)C[C@@H]2CC[C@@H](OC(=O)C(C)(CO)CO)[C@H](OC)C2)CC(=O)[C@H](C)/C=C(\C)[C@@H](O)[C@@H](OC)C(=O)[C@H](C)C[C@H](C)/C=C/C=C/C=C/1C [CCI-779]
[out] 57.6

====

# PROTOCOL SUMMARY: Distribution profile of prototype drug and rapamycin in plasma, liver and tumor of nude mice (LC-MS)
# Format: in vivo
# CONDITION: nude, mouse, liver, 5.0 h after administration, mean of 3 animals; read-out: Y31 (prototype) concentration, Liver, Mean Value
QUANTITY: concentration at 5 h (ng/g)
Response body: numeric value in ng/g, unit text excluded.

[in] Query: concentration at 5 h; subject: CO[C@H]1C[C@@H]2CC[C@@H](C)[C@@](O)(O2)C(=O)C(=O)N2CCCC[C@H]2C(=O)O[C@H]([C@H](C)C[C@@H]2CC[C@@H](OC(=O)OCC(O)CO)[C@H](OC)C2)CC(=O)[C@H](C)/C=C(\C)[C@@H](O)[C@@H](OC)C(=O)[C@H](C)C[C@H](C)/C=C/C=C/C=C/1C (stereo partly shown) [Y31]
[out] 1.32

====

# PROTOCOL SUMMARY: Distribution profile of prototype drug and rapamycin in plasma, liver and tumor of nude mice (LC-MS)
# Type: in vivo
# CONDITION: nude, mouse, liver, 2.0 h after administration, individual animals; read-out: Y31 (prototype) concentration, Liver
QUANTITY: concentration at 2 h (ng/g)
Response body: numeric value in ng/g, unit text excluded.

[in] Query: concentration at 2 h; subject: CO[C@H]1C[C@@H]2CC[C@@H](C)[C@@](O)(O2)C(=O)C(=O)N2CCCC[C@H]2C(=O)O[C@H]([C@H](C)C[C@@H]2CC[C@@H](OC(=O)OCC(O)CO)[C@H](OC)C2)CC(=O)[C@H](C)/C=C(\C)[C@@H](O)[C@@H](OC)C(=O)[C@H](C)C[C@H](C)/C=C/C=C/C=C/1C (stereo partly shown)
[out] 12.4

====

# PROTOCOL SUMMARY: Immunosuppressive activity assay: cytotoxicity
# Assay type: cell-based
# CONDITION: Table 10; read-out: Cytotoxicity CC50
Exercise: for every item that follows, state its recorded CC50.

[in] Query: CC50; subject: CO[C@H]1CC2CC[C@@H](C)[C@@](O)(O2)C(=O)C(=O)N2CCCCC2C(=O)O[C@H]([C@H](C)C[C@@H]2CC[C@@H](OC(=O)OCC3COC(C)(C)O3)[C@H](OC)C2)CC(=O)[C@H](C)/C=C(\C)[C@@H](OC(=O)OCC2COC(C)(C)O2)[C@@H](OC)C(=O)[C@H](C)C[C@H](C)/C=C/C=C/C=C/1C (stereo partly shown)
[out] > 100 µM

[in] Query: CC50; subject: `CO[C@H]1C[C@@H]2CC[C@@H](C)[C@@](O)(O2)C(=O)C(=O)N2CCCC[C@H]2C(=O)O[C@H]([C@H](C)C[C@@H]2CC[C@@H](O)[C@H](OC)C2)CC(=O)[C@H](C)/C=C(\C)[C@@H](O)[C@@H](OC)C(=O)[C@H](C)C[C@H](C)/C=C/C=C/C=C/1C`
[out] > 100 µM

[in] Query: CC50; subject: CO[C@H]1C[C@@H]2CC[C@@H](C)[C@@](O)(O2)C(=O)C(=O)N2CCCC[C@H]2C(=O)O[C@H]([C@H](C)C[C@@H]2CC[C@@H](OC(=O)OCC(O)CO)[C@H](OC)C2)CC(=O)[C@H](C)/C=C(\C)[C@@H](O)[C@@H](OC)C(=O)[C@H](C)C[C@H](C)/C=C/C=C/C=C/1C (stereo partly shown)
[out] 93 µM

[in] Query: CC50; subject: CO[C@H]1CC2CC[C@@H](C)[C@@](O)(O2)C(=O)C(=O)N2CCCCC2C(=O)O[C@H]([C@H](C)C[C@@H]2CC[C@@H](OC(=O)OCC(O)CO)[C@H](OC)C2)CC(=O)[C@H](C)/C=C(\C)[C@@H](OC(=O)OCC(O)CO)[C@@H](OC)C(=O)[C@H](C)C[C@H](C)/C=C/C=C/C=C/1C (stereo partly shown)
[out] > 100 µM

====

# System: human rhabdomyosarcoma RH-30 xenograft
# PROTOCOL SUMMARY: RH-30 xenograft on nude mice;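 further: male BALB/cA nude mice with subcutaneous RH-30 tumors, oral dosing versus solvent-fed controls, caliper tumor volume, RTV relative to grouping day, T/C as treated RTV over control RTV ×100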
# CONDITION: Table 4, 5 mg/kg po, 1-5/2 w
QUANTITY: Body Weight (g) end
Response body: numeric value in g, unit text excluded.

[in] Query: Body Weight (g) end; subject: CO[C@H]1CC2CC[C@@H](C)[C@@](O)(O2)C(=O)C(=O)N2CCCCC2C(=O)O[C@H]([C@H](C)C[C@@H]2CC[C@@H](OC(=O)OCC(O)CO)[C@H](OC)C2)CC(=O)[C@H](C)/C=C(\C)[C@@H](OC(=O)OCC(O)CO)[C@@H](OC)C(=O)[C@H](C)C[C@H](C)/C=C/C=C/C=C/1C (stereo partly shown)
[out] 21.5

[in] Query: Body Weight (g) end; subject: CO[C@H]1C[C@@H]2CC[C@@H](C)[C@@](O)(O2)C(=O)C(=O)N2CCCC[C@H]2C(=O)O[C@H]([C@H](C)C[C@@H]2CC[C@@H](OC(=O)OCC(O)CO)[C@H](OC)C2)CC(=O)[C@H](C)/C=C(\C)[C@@H](O)[C@@H](OC)C(=O)[C@H](C)C[C@H](C)/C=C/C=C/C=C/1C (stereo partly shown)
[out] 21.7

[in] Query: Body Weight (g) end; subject: CO[C@H]1CC2CC[C@@H](C)[C@@](O)(O2)C(=O)C(=O)N2CCCCC2C(=O)O[C@H]([C@H](C)C[C@@H]2CC[C@@H](O)[C@H](OC)C2)CC(=O)[C@H](C)/C=C(\C)[C@@H](OC(=O)OCC(O)CO)[C@@H](OC)C(=O)[C@H](C)C[C@H](C)/C=C/C=C/C=C/1C (stereo partly shown)
[out] 21.2

[in] Query: Body Weight (g) end; subject: `CO[C@H]1C[C@@H]2CC[C@@H](C)[C@@](O)(O2)C(=O)C(=O)N2CCCC[C@H]2C(=O)O[C@H]([C@H](C)C[C@@H]2CC[C@@H](O)[C@H](OC)C2)CC(=O)[C@H](C)/C=C(\C)[C@@H](O)[C@@H](OC)C(=O)[C@H](C)C[C@H](C)/C=C/C=C/C=C/1C`
[out] 20.3

====

# PROTOCOL SUMMARY: in vivo
# Assay type: in vivo
# CONDITION: nude, mouse, in vivo, CCI-779 (prototype) concentration, Blood Plasma
QUANTITY: concentration at 48 h (ng/mL)
Response body: numeric value in ng/mL, unit text excluded.

[in] Query: concentration at 48 h; subject: `CO[C@H]1C[C@@H]2CC[C@@H](C)[C@@](O)(O2)C(=O)C(=O)N2CCCC[C@H]2C(=O)O[C@H]([C@H](C)C[C@@H]2CC[C@@H](OC(=O)C(C)(CO)CO)[C@H](OC)C2)CC(=O)[C@H](C)/C=C(\C)[C@@H](O)[C@@H](OC)C(=O)[C@H](C)C[C@H](C)/C=C/C=C/C=C/1C`
[out] 0.16

====

# PROTOCOL SUMMARY: in vivo
# Format: in vivo
# CONDITION: nude, mouse, in vivo, CCI-779 (prototype) concentration, Liver
QUANTITY: concentration at 2 h
# output: numeric value plus its unit

[in] Query: concentration at 2 h; subject: CO[C@H]1C[C@@H]2CC[C@@H](C)[C@@](O)(O2)C(=O)C(=O)N2CCCC[C@H]2C(=O)O[C@H]([C@H](C)C[C@@H]2CC[C@@H](OC(=O)C(C)(CO)CO)[C@H](OC)C2)CC(=O)[C@H](C)/C=C(\C)[C@@H](O)[C@@H](OC)C(=O)[C@H](C)C[C@H](C)/C=C/C=C/C=C/1C [CCI-779]
[out] 103 ng/g
